- System: CAPAN-1
- assay-summary: Antiproliferative activity against KRAS-dependent human Capan1 cells after 48 hrs by CCK8 assay
- recorded-conditions: CAPAN-1, 48 h
Reported IC50 is given for each of the following compounds.

Example entries begin here.
>  <compound>
COc1ccc2c(c1)NC(c1ccccc1F)N(CCOc1ccc(-c3nc4ccccc4n3Cc3ccncc3)cc1)C2=O (centres undefined)

>  <IC50>
> 100 µM

$$$$
>  <compound>
O=C1c2cc(F)ccc2NC(c2ccccc2F)N1C1CCN(CCCn2ccnc2-c2ccccc2)CC1 (centres undefined)

>  <IC50>
33 µM

$$$$
>  <compound>
Cc1ccc2c(c1)C(=O)N(CCOc1ccc(-c3nc4ccccc4n3Cc3ccncc3)cc1)C(c1ccccc1F)N2 (centres undefined)

>  <IC50>
> 100 µM

$$$$

Below: the item to evaluate.
# get_value(readout='IC50', item= O=C1c2ccc(Cl)cc2NC(c2ccccc2F)N1CCOc1ccc(-c2nc3ccccc3n2Cc2ccncc2)cc1 (centres undefined) )
> 100 µM
